Test: Cytotoxic activity, standard tetrazolium (MTT) assay on HaCaT cells
Type: cell-based
Settings: human, HaCaT keratinocyte cells, 24 h incubation with compound, 1-200 µg/mL
Description: Cytotoxic properties of pure compounds were determined with a standard tetrazolium assay. B16 (6000 cells/well) and HaCaT (10,000 cells/well) cells were seeded in RPMI 1640 medium with 5% fetal calf serum (FCS) and antibiotic at day 0 in well-plate. Incubation was performed at 37 °C in an atmosphere of 5% CO2. […] Cell growth and viability were then measured at 540 nm, using a MTT (3-[4,5-dimethylthiazol-2-yl]-2,5-diphenyltetrazolium bromide) assay. […]
Non-standard residues stand in square brackets, D forms with d. Residues, ends and D or L forms follow the SMILES beside them. *: point of attachment. Tyr(3-Br) = N[C@@H](Cc1ccc(O)c(Br)c1)C(=O)O; Boc = CC(C)(C)OC(=O)*
We begin with a simple list: items and their reported IC50 at 24 h.

Sample answers from the record:
Molecule | Obs Value
CC(C)C[C@@H]1NC(=O)[C@@H]2CCCN2C1=O | > 200 µg/mL
COC(=O)[C@H]1CCCN1C(=O)[C@H](Cc1ccc(O)c(Br)c1)NC(=O)OC(C)(C)C [Compound 13a] (Boc-[Tyr(3-Br)]-[dP]-OMe) | > 200 µg/mL

May I ask what IC50 at 24 h has been recorded for CC(C)[C@@H]1NC(=O)[C@@H]2CCCN2C1=O ?
> 200 µg/mL

// next record O=Cc1c[nH]c2ccccc12
79 µg/mL

====

assay: Cytotoxic activity, standard tetrazolium (MTT) assay on HaCaT cells; type: cell-based; settings: human, HaCaT keratinocyte cells, 24 h incubation with compound, 1-200 µg/mL
Non-standard residues stand in square brackets, D forms with d. Residues, ends and D or L forms follow the SMILES beside them. *: point of attachment. Tyr(3-Br) = N[C@@H](Cc1ccc(O)c(Br)c1)C(=O)O; Boc = CC(C)(C)OC(=O)*
We begin with a simple list: items and their reported IC50 at 24 h.

Sample answers from the record:
Compound | IC50 at 24 h
COC(=O)[C@@H]1CCCN1C(=O)[C@H](Cc1ccc(O)c(Br)c1)NC(=O)OC(C)(C)C [Compound 13b] (Boc-[Tyr(3-Br)]-Pro-OMe) | 7 µg/mL
O=C1N[C@@H](Cc2ccc(O)c(Br)c2)C(=O)N2CCC[C@@H]12 | > 200 µg/mL
O=C1N[C@@H](Cc2ccc(O)cc2)C(=O)N2CCC[C@@H]12 | > 200 µg/mL
O=C1N[C@@H](Cc2ccc(O)cc2)C(=O)N2CCC[C@H]12 | > 200 µg/mL
O=C1N[C@@H](Cc2ccc(O)c(Br)c2)C(=O)N2CCC[C@H]12 | > 200 µg/mL

Continue with the next compound.
May I ask what IC50 at 24 h has been recorded for C[S+]([O-])CC[C@@H]1NC(=O)[C@@H]2CCCN2C1=O (stereo partly drawn) ?
> 200 µg/mL
